B1: Twister Ribozyme (parent)
chain: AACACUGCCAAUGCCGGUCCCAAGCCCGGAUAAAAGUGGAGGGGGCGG

variants of: B1; assay: self-cleavage, relative activity (ratio to wild type); higher = more cleavage; co-transcriptional
Mark label 0 for self-cleavage values under 0.1, and label 1 for everything at or above.

mutantDesignation	categoryLabel
A2C U31G	label 1
G17A G45U	label 1
C19A C27G	label 0
A4U A34U	label 0
A40G G44U	label 1
C46G G48C	label 1
C3U G38A	label 1
U6G C25G	label 0
A4C U31C	label 1
C27A G38C	label 1
A40G C46U	label 1
G43C G44U	label 1
C26U A34G	label 1
A35U G36U	label 1
C20G G24A	label 1
G7U C9A	label 0
C8U C27G	label 0
A30G G44C	label 1
G39A G43A	label 1
U6C G42A	label 0
C25G A33G	label 1
A4G C20A	label 1
A34U G42U	label 1
